System: HCV 1b_Huh-Luc/Neo-ET cell line persistently expressing a bicistronic genotype 1b replicon in Huh 7 cells
ASSAY_REMARKS: HCV replicon assay (luciferase readout, 72 h)
Format: cell-based, HCV genotype 1b
PROTOCOL_CONDITIONS: Hepatitis C virus, Huh-7, 72 h, read-out: Inhibition of HCV genotype 1b
pEC50: −log10 of the molar value.
I'd appreciate it if you could supply pEC50 values for the items below.

SMILES_DATA	pEC50
COC[C@H](NC(=O)OC)C(=O)N1CCC[C@H]1c1ncc(-c2ccc(C#Cc3ccc4nc([C@@H]5CCCN5C(=O)[C@H](COC)NC(=O)OC)[nH]c4c3)cc2)[nH]1	> 9.00
COC(=O)NC1(C(=O)N2CCC[C@H]2c2ncc(-c3ccc(C#Cc4ccc5nc([C@@H]6CCCN6C(=O)C6(NC(=O)OC)CC6)[nH]c5c4)cc3)[nH]2)CC1	6.00 to 8.00
O=C(N[C@@H](C(=O)N1CCC[C@H]1c1ncc(-c2ccc(C#Cc3ccc(-c4cnc([C@@H]5CCCN5C(=O)[C@H](NC(=O)N5CCOCC5)c5ccccc5)[nH]4)cc3)cc2)[nH]1)c1ccccc1)C1CC1	> 9.00
C[C@@H](NC(=O)C1CC1)C(=O)N1CCC[C@H]1c1ncc(C#Cc2ccc(-c3cnc([C@@H]4CCCN4C(=O)[C@@H](C)NC(=O)C4CC4)[nH]3)cc2)[nH]1	8.00 to 9.00
COC(=O)N[C@@H](C(=O)N1CCC[C@H]1c1ncc(-c2ccc3nc(C#Cc4ccc5nc([C@@H]6CCCN6C(=O)[C@H](NC(=O)OC)c6ccccc6)[nH]c5c4)ccc3c2)[nH]1)c1ccccc1	> 9.00
COC(=O)N[C@@H](C(=O)N1CCC[C@H]1CNC(=O)c1ccc(C#Cc2ccc(-c3cnc([C@@H]4CCCN4C(=O)[C@H](NC(=O)OC)c4ccccc4)[nH]3)cc2)cc1)c1ccccc1	> 9.00

Please turn your attention to the following entry.
I'd like to know its pEC50. The compound in question is `CC(C)[C@@H](NC(=O)C1CC1)C(=O)N1CCC[C@H]1C(=O)NCc1ccc(C#Cc2cnc([C@@H]3CCCN3C(=O)[C@H](NC(=O)C3CC3)C(C)C)[nH]2)cc1`
8.00 to 9.00

* * *

Test system: HCV 1b_Huh-Luc/Neo-ET cell line persistently expressing a bicistronic genotype 1b replicon in Huh 7 cells
ASSAY_REMARKS: HCV replicon assay (luciferase readout, 72 h)
Format: cell-based, HCV genotype 1b
PROTOCOL_CONDITIONS: Hepatitis C virus, Huh-7, 72 h, read-out: Inhibition of HCV genotype 1b
pEC50: −log10 of the molar value.
ASSAY_READOUT: pEC50

Parameters: items (list). Returns: pEC50 for each item.
1. COC(=O)N[C@H](C(=O)N1CCC[C@H]1c1ncc(-c2ccc(C#Cc3ccc(-c4cnc([C@@H]5CCCN5C(=O)[C@H](NC(=O)N(CCO)CCO)c5ccccc5)[nH]4)cc3)cc2)[nH]1)C(C)C
2. CC[C@@H](C)[C@H](NC(=O)OC)C(=O)N1CCC[C@H]1c1ncc(-c2ccc(C#Cc3ccc4nc([C@@H]5CCCN5C(=O)[C@@H](NC(=O)OC)[C@H](C)CC)[nH]c4c3)cc2)[nH]1
3. C[C@@H](NC(=O)OC(C)(C)C)C(=O)N1CCC[C@H]1c1ncc(C#Cc2ccc(-c3cnc([C@@H]4CCCN4C(=O)[C@@H](C)NC(=O)OC(C)(C)C)[nH]3)cc2)[nH]1
4. COC(=O)N[C@@H](CC(N)=O)C(=O)N1CCC[C@H]1c1ncc(-c2ccc(C#Cc3ccc4nc([C@@H]5CCCN5C(=O)[C@H](CC(N)=O)NC(=O)OC)[nH]c4c3)cc2)[nH]1
5. COC(=O)N[C@@H](C)C(=O)N1CCC[C@H]1c1ncc(-c2ccc(C#Cc3ccc(-c4cnc([C@@H]5CCCN5C(=O)[C@H](C)NC(=O)OC)[nH]4)cc3)cc2)[nH]1

> 9.00
> 9.00
8.00 to 9.00
8.00 to 9.00
> 9.00
